Measured MEC values are reported for all entries that follow.
target: recombinant guanylate cyclase reporter cell line (Rattus norvegicus, UniProt P19686+P20595); construct: expressed in transfected cells; host or cells: recombinant reporter cell line; assay: Effect on a recombinant guanylate cyclase reporter cell line; assay type: cell-based; conditions: MEC = minimum effective concentration; in some cases mean values for individual determinations
measured parameter: MEC (µM)

INSERT INTO assay_data (compound, assay_result) VALUES
  ('Cc1nc2c(OCc3c(F)cccc3F)cccn2c1-c1cccc2[nH]ncc12 [Example 53]', 1.0),
  ('Cc1cc(OCc2c(F)ccc(F)c2F)c2nc(C)c(-c3cnn(CC(C)(C)N)c3)n2c1 [Example 87]', 0.1),
  ('Cc1nc2c(OCc3c(F)cccc3F)cccn2c1-c1cccc(CN2CCCC2)c1 [Example 15]', 0.065),
  ('Cc1cc(OCc2c(F)cccc2F)c2nc(C)c(-c3cnn(CCCc4nnn[nH]4)c3)n2c1 [Example 101]', 0.1);

====

Biological target: recombinant guanylate cyclase reporter cell line (Rattus norvegicus, UniProt P19686+P20595)
Construct: expressed in transfected cells; host or cells: recombinant reporter cell line
Sequence (P19686 1-690): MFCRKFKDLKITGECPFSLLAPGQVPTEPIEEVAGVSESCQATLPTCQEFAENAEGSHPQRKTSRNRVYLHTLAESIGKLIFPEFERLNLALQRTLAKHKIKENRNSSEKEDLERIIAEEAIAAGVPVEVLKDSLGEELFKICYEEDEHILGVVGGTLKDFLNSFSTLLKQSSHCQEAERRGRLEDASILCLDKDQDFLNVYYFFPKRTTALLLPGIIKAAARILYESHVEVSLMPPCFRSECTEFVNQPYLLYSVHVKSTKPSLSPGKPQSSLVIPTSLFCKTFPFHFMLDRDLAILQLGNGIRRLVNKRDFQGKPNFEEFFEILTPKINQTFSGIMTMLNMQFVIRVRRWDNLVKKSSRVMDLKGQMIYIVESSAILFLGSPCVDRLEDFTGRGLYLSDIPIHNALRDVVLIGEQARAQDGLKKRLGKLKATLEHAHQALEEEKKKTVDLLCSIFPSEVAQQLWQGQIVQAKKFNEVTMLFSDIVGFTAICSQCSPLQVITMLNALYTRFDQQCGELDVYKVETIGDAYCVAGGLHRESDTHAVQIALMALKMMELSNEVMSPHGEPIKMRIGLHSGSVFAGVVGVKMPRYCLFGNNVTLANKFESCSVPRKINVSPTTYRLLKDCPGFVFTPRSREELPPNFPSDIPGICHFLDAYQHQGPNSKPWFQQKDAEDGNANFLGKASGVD
Sequence (P20595 1-619): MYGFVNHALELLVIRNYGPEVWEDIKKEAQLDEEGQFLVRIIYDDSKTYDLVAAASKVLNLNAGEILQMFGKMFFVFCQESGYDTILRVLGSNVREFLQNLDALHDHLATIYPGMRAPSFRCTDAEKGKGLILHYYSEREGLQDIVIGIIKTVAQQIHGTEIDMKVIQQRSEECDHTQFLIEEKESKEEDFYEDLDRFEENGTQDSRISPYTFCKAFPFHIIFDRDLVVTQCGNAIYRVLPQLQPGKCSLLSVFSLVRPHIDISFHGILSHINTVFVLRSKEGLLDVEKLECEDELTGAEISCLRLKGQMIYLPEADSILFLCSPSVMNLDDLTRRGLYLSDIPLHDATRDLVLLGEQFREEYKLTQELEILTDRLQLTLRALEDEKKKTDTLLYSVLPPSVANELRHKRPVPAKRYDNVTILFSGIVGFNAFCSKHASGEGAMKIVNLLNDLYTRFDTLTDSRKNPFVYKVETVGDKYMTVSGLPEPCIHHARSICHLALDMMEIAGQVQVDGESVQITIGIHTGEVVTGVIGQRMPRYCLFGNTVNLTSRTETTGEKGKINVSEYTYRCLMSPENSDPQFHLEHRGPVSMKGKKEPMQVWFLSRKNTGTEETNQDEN
Test: Effect on a recombinant guanylate cyclase reporter cell line
Assay type: cell-based
Settings: MEC = minimum effective concentration; in some cases mean values for individual determinations
Protocol: B-2. Effect on a Recombinant Guanylate Cyclase Reporter Cell Line The cellular effect of the inventive compounds is determined using a recombinant guanylate cyclase reporter cell line, as described in F. Wunder et al., Anal. Biochem. 339, 104-112 (2005). Representative MEC values (MEC=minimum effective concentration) for the inventive compounds are shown in the table below (in some cases as mean values for individual determinations): […]
Given measured MEC, output Met if it is greater than or equal to 1 µM and Not met if not.

INSERT INTO assay_data (molecule, category) VALUES
  ('Cc1nc2c(OCc3c(F)cccc3F)cccn2c1-c1ccn[nH]1 [Example 47]', 'Not met'),
  ('Cc1nc2c(OCc3c(F)cccc3F)cccn2c1-c1cnccn1 [Example 60]', 'Met'),
  ('Cc1nc2c(OCc3c(F)cccc3F)cccn2c1-c1cccc(NS(C)(=O)=O)c1 [Example 48]', 'Not met'),
  ('Cc1cc(OCc2c(F)cccc2F)c2nc(C)c(-c3cnn(CCCC#N)c3)n2c1 [Example 100]', 'Not met'),
  ('Cc1nc2c(OCC3CCCCC3)cccn2c1-c1nnc(C2CC2)o1 [Example 74]', 'Met'),
  ('Cc1nc2c(OCc3c(F)cccc3F)cccn2c1-c1ccnn1C [Example 11]', 'Met');
